// data source = patent US20010039287A1

Target: recombinant human MMP-1 (Homo sapiens, UniProt P03956)
Construct: made in house; host or cells: transfected HT-1080 cells (provided by Dr. Harold Welgus, Washington University)
Sequence (P03956 100-469): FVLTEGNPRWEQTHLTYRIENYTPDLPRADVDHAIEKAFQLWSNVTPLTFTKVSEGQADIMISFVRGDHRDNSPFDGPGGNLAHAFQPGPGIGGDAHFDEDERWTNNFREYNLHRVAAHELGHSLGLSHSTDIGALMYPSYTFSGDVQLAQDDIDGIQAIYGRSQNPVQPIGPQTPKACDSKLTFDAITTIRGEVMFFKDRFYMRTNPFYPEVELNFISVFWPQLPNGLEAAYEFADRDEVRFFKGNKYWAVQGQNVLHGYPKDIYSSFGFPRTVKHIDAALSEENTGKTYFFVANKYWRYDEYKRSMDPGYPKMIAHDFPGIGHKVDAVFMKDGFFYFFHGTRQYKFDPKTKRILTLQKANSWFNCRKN
Test: biochemical
Conditions: Inhibition Table B; read-out: MMP-1 IC50
Structures can show the parent of a compound that is named as a salt.
metric: pIC50
Friendly reminder that pIC50 comes from taking -log10 of the concentration in mol/L.

The compound listed as C#CCN1CCC(C(=O)NO)(S(=O)(=O)c2ccc(Oc3cccc(C)c3)cc2)CC1 [Example 41, Monohydrochloride] shows pIC50 equal to 5.92

The compound listed as O=C(C1CCCN(c2ccc(S(=O)(=O)C3(C(=O)NO)CCOCC3)cc2)C1)N1CCCC2CCCCC21 (stereo not shown) shows pIC50 equal to 5.00

Now examine the next entry.
The compound listed as N[C@H]1CCN(C(=O)C2CCN(c3ccc(S(=O)(=O)C4(C(=O)NO)CCOCC4)cc3)CC2)C1 shows pIC50 equal to 5.00
